Reference source for all entries: patent EP4538285A1

Documented log10 of koff across a set of binders
- assay target: T1, Tilelizumab
- T1 construct: Biotin-labelled in flow cytometry; also called Tevimbra; Tislelizumab
- assay summary: SPR, Biacore T200; PD1-RFc mobile phase, antibody stationary phase
recorded metric: log10 of koff (log10 of the value in s⁻¹)

>>> numeric_value("Seq No.5-RFc (PD-1 variant SEQ ID NO: 5 fused to rabbit IgG Fc) (Fc fusion, Signal peptide 1-20 left out; also called variant 4; not shown: rabbit IgG Fc (RFc) of vector pcDNA3.4-RFc) PGWFLDSPDRPWNPPTFSPALLVVTEGDNATFTCSFSNTSESFVLNWYRMSPSNQTDKLAAFPEDFRNCTQDCRFRVTQLPNGRDFHMSVVRARRNDSGTYLCGAISLSTPVWIKESLRAELRVTERRAEVPTAH")
-3.52
>>> numeric_value("Seq No.4-RFc (PD-1 variant SEQ ID NO: 4 fused to rabbit IgG Fc) (Fc fusion, Signal peptide 1-20 left out; also called variant 3; not shown: rabbit IgG Fc (RFc) of vector pcDNA3.4-RFc) PGWFLDSPDRPWNPPTFSPALLVVTEGDNATFTCSFSNTSESFVLNWYRMSPSNQTDKLAAFPWMFCFPGQDCRFRVTQLPNGRDFHMSVVRARRNDSGTYLCGAISLSTPVWIKESLRAELRVTERRAEVPTAH")
-2.69
>>> numeric_value("Seq No.3-RFc (PD-1 variant SEQ ID NO: 3 fused to rabbit IgG Fc) (Fc fusion, Signal peptide 1-20 left out; also called variant 2; not shown: rabbit IgG Fc (RFc) of vector pcDNA3.4-RFc) PGWFLDSPDRPWNPPTFSPALLVVTEGDNATFTCSFSNTSESFVLNWYRMSPSNQTDKLAAFPFLFNLPGQDCRFRVTQLPNGRDFHMSVVRARRNDSGTYLCGAISLSTPVWIKESLRAELRVTERRAEVPTAH")
-2.98
>>> numeric_value("Seq No.6-RFc (PD-1 variant SEQ ID NO: 6 fused to rabbit IgG Fc) (Fc fusion, Signal peptide 1-20 left out; also called variant 5; 56#-16; not shown: rabbit IgG Fc (RFc) of vector pcDNA3.4-RFc) PGWFLDSPDRPWNPPTFSPALLVVTEGDNATFTCSFSNTSESFVLNWYRMSPSNQTDKLAAFPEDFFTVSQDCRFRVTQLPNGRDFHMSVVRARRNDSGTYLCGAISLSTPVWIKESLRAELRVTERRAEVPTAH")
-3.08
>>> numeric_value("Seq No.2-RFc (PD-1 variant SEQ ID NO: 2 fused to rabbit IgG Fc) (Fc fusion, signal peptide 1-20 left out; also called variant 1; not shown: rabbit IgG Fc (RFc) of vector pcDNA3.4-RFc) PGWFLDSPDRPWNPPTFSPALLVVTEGDNATFTCSFSNTSESFVLNWYRMSPSNQTDKLAAFPEDRSQPGQDCRFRVTQLPNGRDFHMSVVRARRNDSGTYLCGAISLSTPVWIKESLRAELRVTERRAEVPTAH")
-3.76
